# tested-system: CXCL8 (human)
# Sequence (chain, as listed by the source): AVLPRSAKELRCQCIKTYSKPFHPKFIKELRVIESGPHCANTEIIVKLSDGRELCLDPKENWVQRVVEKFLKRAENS
# assay-protocol: BLI
measured-attribute: pKd
Please note pKd is a logarithmic value: minus log10 of concentration in mol/L. Answer with that number alone.

**Q:** Using the record for P1156 (evasin from Ixodes ricinus), purified, C-terminal StrepII:His tag (natural protein) DGGADDDNELFTVQYCGMNCTKDEGGTWTGCTGKKEGCKCYHESGKNYGLCLSTEYTDFSQYGNPSDSEIEAAKPKRSDTLSH , state its measured pKd.
**A:** 8.54
